# Assayed System: Phosphatidylinositol 4,5-bisphosphate 3-kinase catalytic subunit alpha isoform (Homo sapiens);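 further: values are mean inhibition figures from the GSK PKIS kinase panel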
# Condition Label: at 0.1 µM
Recorded Metric: inhibition (%)

[
  {
    "Compound": "COc1cc2ncn(-c3cc(OCCc4ccccc4)c(C(N)=O)s3)c2cc1OC",
    "Scale Unit": "%",
    "Reading": 2.08
  },
  {
    "Compound": "COc1ccc2cc(-c3c(-c4ccncc4)nc(-c4ccc([S+](C)[O-])cc4C)n3C)ccc2c1 (centres undefined)",
    "Scale Unit": "%",
    "Reading": -2.02
  },
  {
    "Compound": "C[C@@H](Oc1cc(-n2cnc3ccc(OCC4CCN(C)CC4)cc32)sc1C(N)=O)c1ccccc1Cl",
    "Scale Unit": "%",
    "Reading": 8.19
  },
  {
    "Compound": "Fc1ccc(-c2ncn(C3CCNCC3)c2-c2ccnc(Oc3ccc(Oc4ccccc4)cc3)n2)cc1",
    "Scale Unit": "%",
    "Reading": 3.74
  },
  {
    "Compound": "O=C1Nc2ccc(I)cc2C1=Cc1cc(Br)c(O)c(Br)c1",
    "Scale Unit": "%",
    "Reading": 6.08
  },
  {
    "Compound": "O=C(Nc1n[nH]c2nc(-c3ccc(O)cc3)c(Br)cc12)C1CC1",
    "Scale Unit": "%",
    "Reading": 6.93
  },
  {
    "Compound": "Cc1nnc(-c2ccc(C)c(-c3ccc(C(=O)NCc4ccc(Cl)cc4)cc3)c2)o1",
    "Scale Unit": "%",
    "Reading": 3.66
  },
  {
    "Compound": "CCC(=O)Nc1ccc(C)c(-c2ccc(C(=O)NCC3CC3)cc2)c1",
    "Scale Unit": "%",
    "Reading": 2.7
  },
  {
    "Compound": "C[C@@H](Oc1cc(-n2cnc3ccc(OC4CCN(C)CC4)cc32)sc1C(N)=O)c1ccccc1Cl",
    "Scale Unit": "%",
    "Reading": 5.06
  }
]
